Listed binders paired with reported pIC50
SYSTEM: T1, human CX3CR1 (human, UniProt P49238 1-355)
T1 construct: overexpressed on CHO, BA/F3 or HEK293T cells; also called huCX3CR1; hCX3CR1
T1 sequence: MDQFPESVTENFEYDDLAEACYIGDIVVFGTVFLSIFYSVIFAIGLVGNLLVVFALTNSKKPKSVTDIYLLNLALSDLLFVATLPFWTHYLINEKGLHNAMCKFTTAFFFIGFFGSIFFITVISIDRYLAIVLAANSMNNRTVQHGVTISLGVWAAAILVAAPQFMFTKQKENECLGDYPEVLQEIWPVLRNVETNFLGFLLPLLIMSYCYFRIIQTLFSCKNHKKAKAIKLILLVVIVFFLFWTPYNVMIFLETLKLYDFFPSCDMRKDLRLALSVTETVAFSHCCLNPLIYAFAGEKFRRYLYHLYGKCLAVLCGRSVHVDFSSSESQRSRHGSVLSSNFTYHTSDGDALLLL
PROTOCOL TEXT: fractalkine competition FACS
pIC50: −log10 of the molar value.
VALUE TYPE: pIC50

BINDER	QUANTITATIVE READOUT
CX3CR1BIIPMP66B02 (VHH, alexa647 label where used as labeled competitor (Table 23), also called CX3CR1BII66B02; C100CX3CR1BII66B02; not shown: C-terminal c-myc and His6 tags) VHH: EVQLVESGGGSVQAGESLRLSCAASGSIFSSNAMAWYRQAPGKRRDLVAAINSVGVTKYADSVKGRFTISRDNAKNTVYLQMNSLKPEDTAVYYCTSDPRRGWDTRYWGQGTQVTVSS	8.60
CX3CR1BII00308 (VHH, also called CX3CR1BII308) VHH: DVQLVESGGGLVQPGGSLRLSCAASGSIFSSNAMAWYRQAPGKRRDLVAAINSVGVTKYADSVKGRFTISRDNSKNTVYLQMNSLRPEDTAVYYCTSDPRRGWDTRYWGQGTLVTVSS	8.80
CX3CR1BII00306 (VHH, also called CX3CR1BII306) VHH: DVQLVESGGGLVQPGGSLRLSCAASGSIFSSTAMAWYRQAPGKRRDLVAAISSVGVTKYADSVKGRFTISRDNSKNTVYLQMNSLRPEDTAVYYCTSDPRRGWDTRYWGQGTLVTVSS	8.77
CX3CR1BII00307 (VHH, also called CX3CR1BII307) VHH: DVQLVESGGGLVQPGGSLRLSCAASGSIFSSTAMAWYRQAPGKRRDLVAAISTVGVTKYADSVKGRFTISRDNSKNTVYLQMNSLRPEDTAVYYCTSDPRRGWDTRYWGQGTLVTVSS	8.72
